Catalogue of DC50 readings, one per entry.
Target: Androgen Receptor (Homo sapiens, UniProt P10275)
Construct: endogenous in cells; host or cells: VCaP cells
Sequence (P10275 whole entry): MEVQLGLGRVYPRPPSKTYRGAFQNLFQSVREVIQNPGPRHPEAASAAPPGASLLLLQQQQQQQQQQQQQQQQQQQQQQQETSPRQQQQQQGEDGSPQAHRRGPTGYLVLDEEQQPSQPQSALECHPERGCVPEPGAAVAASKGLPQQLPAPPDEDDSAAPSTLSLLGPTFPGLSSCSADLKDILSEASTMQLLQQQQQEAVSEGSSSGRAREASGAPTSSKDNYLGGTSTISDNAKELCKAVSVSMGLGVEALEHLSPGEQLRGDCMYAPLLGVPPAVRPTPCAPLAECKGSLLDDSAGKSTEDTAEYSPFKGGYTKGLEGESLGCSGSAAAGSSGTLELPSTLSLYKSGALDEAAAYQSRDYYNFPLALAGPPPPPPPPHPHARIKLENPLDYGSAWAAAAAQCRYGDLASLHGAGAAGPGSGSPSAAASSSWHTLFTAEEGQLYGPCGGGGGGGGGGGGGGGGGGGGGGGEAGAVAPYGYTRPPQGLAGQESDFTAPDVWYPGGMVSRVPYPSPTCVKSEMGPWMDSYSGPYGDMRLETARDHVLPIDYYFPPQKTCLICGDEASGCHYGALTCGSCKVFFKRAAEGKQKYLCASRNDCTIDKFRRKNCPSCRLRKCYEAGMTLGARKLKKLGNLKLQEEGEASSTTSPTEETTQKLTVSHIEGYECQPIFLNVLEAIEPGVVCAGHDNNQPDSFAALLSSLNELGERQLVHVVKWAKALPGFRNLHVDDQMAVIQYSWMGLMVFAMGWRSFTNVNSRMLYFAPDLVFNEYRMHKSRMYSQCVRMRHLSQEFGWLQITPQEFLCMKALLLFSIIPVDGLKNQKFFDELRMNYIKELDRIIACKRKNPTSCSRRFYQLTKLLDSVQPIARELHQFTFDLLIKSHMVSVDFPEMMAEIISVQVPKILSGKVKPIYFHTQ
Experiment: Androgen Receptor ELISA assay (PathScan AR ELISA) in VCaP cells: AR degradation, Dmax and DC50
Assay type: cell-based
Conditions: VCaP cells; Table 35; read-out: VCaP DC50

compound	experimental.system	reported.endpoint	assay.result
CC(=O)O[C@@H]1C[C@@H](C(=O)N[C@@H](C)c2ccc(-c3scnc3C)cc2)N(C(=O)[C@@H](NC(=O)COCCCCCNc2ccc(C(=O)N[C@H]3C(C)(C)[C@H](Oc4ccc(C#N)c(Cl)c4)C3(C)C)cc2)C(C)(C)C)C1	Androgen Receptor (Homo sapiens, UniProt P10275)	DC50	< 50 nM

QUERY: Consider the compound Cc1ncsc1-c1ccc([C@H](C)NC(=O)[C@@H]2C[C@@H](O)CN2C(=O)[C@@H](NC(=O)c2cc3ccc(OC4CN(c5ncc(C(=O)N[C@H]6C(C)(C)[C@H](Oc7ccc(C#N)c(Cl)c7)C6(C)C)cn5)C4)cc3o2)C(C)(C)C)cc1 and give its measured DC50.
RESULT: < 50 nM

QUERY: Consider the compound CC(C)(C)[C@H](NC(=O)COCCCCCNc1ccc(C(=O)N[C@H]2C(C)(C)[C@H](Oc3ccc(C#N)c(Cl)c3)C2(C)C)cc1)C(=O)N1C[C@H](O)C[C@H]1C(=O)NCc1ccc(-c2cnccn2)cc1 and give its measured DC50.
RESULT: < 50 nM

QUERY: Consider the compound Cc1ncsc1-c1ccc(CNC(=O)[C@@H]2C[C@@H](O)CN2C(=O)[C@@H](NC(=O)COCCCCCNc2ccc(C(=O)N[C@H]3C(C)(C)[C@H](Oc4ccc(C#N)c(Cl)c4)C3(C)C)cc2)C(C)(C)C)nc1 and give its measured DC50.
RESULT: > 501 nM

QUERY: Consider the compound Cc1ncsc1-c1ccc([C@H](C)NC(=O)[C@@H]2C[C@@H](O)CN2C(=O)[C@@H](NC(=O)COCCN2CCN(c3ccc(C(=O)N[C@H]4C(C)(C)[C@H](Oc5ccc(C#N)c(Cl)c5)C4(C)C)cc3)CC2)C(C)(C)C)cc1 and give its measured DC50.
RESULT: < 50 nM

QUERY: Consider the compound Cc1ncsc1-c1ccc(CNC(=O)[C@@H]2C[C@@H](O)CN2C(=O)[C@@H](NC(=O)COCCCCCNc2ccc(C(=O)N[C@H]3C(C)(C)[C@H](Oc4ccc(C#N)c(Cl)c4)C3(C)C)cc2)C(C)(C)C)cn1 and give its measured DC50.
RESULT: < 50 nM

QUERY: Consider the compound Cc1ncsc1-c1ccc([C@H](C)NC(=O)[C@@H]2C[C@@H](O)CN2C(=O)[C@@H](NC(=O)COc2ccc(OC3CCC(Oc4ccc(C(=O)N[C@H]5C(C)(C)[C@H](Oc6ccc(C#N)c(Cl)c6)C5(C)C)cc4)CC3)nc2)C(C)(C)C)cc1 (stereo partly shown) and give its measured DC50.
RESULT: < 50 nM

* * *

Target: Androgen Receptor (Homo sapiens, UniProt P10275+P40337, T878A)
Construct: Compounds have been evaluated in this assay in LNCaP and/or VCaP cells utilizing similar protocols; endogenous in cells; host or cells: LNCaP cells
Sequence (P10275 whole entry T878A): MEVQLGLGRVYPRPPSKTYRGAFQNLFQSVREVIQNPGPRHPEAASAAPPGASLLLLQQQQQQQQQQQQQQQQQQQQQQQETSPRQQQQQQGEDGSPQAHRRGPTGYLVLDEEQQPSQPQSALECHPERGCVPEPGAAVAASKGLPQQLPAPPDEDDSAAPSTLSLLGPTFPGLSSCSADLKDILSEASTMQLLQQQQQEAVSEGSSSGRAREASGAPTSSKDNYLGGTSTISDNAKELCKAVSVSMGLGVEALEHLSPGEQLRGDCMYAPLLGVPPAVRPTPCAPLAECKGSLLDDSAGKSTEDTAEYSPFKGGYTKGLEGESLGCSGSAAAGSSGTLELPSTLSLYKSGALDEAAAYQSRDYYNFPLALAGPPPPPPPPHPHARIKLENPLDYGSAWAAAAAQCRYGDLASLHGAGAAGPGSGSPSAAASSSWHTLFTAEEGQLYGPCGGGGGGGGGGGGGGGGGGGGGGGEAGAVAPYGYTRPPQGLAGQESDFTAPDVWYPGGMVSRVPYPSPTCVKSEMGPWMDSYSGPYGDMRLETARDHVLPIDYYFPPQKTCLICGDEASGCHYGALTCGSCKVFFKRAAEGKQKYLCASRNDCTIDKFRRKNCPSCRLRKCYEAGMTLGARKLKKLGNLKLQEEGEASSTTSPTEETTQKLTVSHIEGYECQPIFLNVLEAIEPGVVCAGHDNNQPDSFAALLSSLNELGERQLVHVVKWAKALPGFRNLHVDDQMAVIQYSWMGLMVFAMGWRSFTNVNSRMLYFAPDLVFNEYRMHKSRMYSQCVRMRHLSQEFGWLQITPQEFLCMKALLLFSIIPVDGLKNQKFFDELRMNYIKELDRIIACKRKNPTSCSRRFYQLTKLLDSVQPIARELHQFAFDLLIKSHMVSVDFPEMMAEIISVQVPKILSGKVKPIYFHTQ
Sequence (P40337 whole entry): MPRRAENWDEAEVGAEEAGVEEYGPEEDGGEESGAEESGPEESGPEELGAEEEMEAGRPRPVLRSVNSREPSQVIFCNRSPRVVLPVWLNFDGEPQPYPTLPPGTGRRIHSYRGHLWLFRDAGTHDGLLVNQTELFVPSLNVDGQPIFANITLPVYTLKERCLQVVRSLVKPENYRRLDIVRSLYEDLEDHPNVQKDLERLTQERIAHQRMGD
Sequence (Q15369 whole entry partner): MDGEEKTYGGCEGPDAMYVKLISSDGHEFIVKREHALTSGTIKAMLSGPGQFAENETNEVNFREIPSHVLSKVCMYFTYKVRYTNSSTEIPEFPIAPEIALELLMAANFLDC
Sequence (Q15370 whole entry partner): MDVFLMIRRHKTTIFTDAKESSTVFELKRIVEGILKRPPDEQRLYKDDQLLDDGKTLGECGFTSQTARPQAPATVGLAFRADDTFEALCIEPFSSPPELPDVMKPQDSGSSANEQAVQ
Test: Androgen Receptor ELISA assay (PathScan AR ELISA) in LNCaP cells: AR degradation, Dmax and DC50
Assay type: cell-based
Conditions: concentration that caused 50% Androgen Receptor degradation
reported.endpoint: DC50

# annotated cases, reported DC50 shown
smiles.input	experimental.system	reported.endpoint	assay.result
Cc1ncsc1-c1ccc(CNC(=O)[C@@H]2C[C@@H](O)CN2C(=O)[C@@H](NC(=O)CCOCC#CC#CCOc2ccc(N3C(=S)N(c4ccc(C#N)c(C(F)(F)F)c4)C(=O)C3(C)C)cc2)C(C)(C)C)cc1	Androgen Receptor (Homo sapiens, UniProt P10275+P40337, T878A)	DC50	> 501 nM
CC(=O)N[C@H](C(=O)N1C[C@H](O)C[C@H]1C(=O)NCc1ccc(-c2scnc2C)cc1OCCOCCOCCOc1ccc(N2C(=S)N(c3ccc(C#N)c(C(F)(F)F)c3)C(=O)C2(C)C)cc1)C(C)C	Androgen Receptor (Homo sapiens, UniProt P10275+P40337, T878A)	DC50	> 501 nM
Cc1ncsc1-c1ccc(CNC(=O)[C@@H]2C[C@@H](O)CN2C(=O)[C@@H](NC(=O)CCOCCOCCOc2ccc(-c3ccc(N4C(=S)N(c5ccc(C#N)c(C(F)(F)F)c5)C(=O)C4(C)C)cc3)cc2)C(C)(C)C)cc1	Androgen Receptor (Homo sapiens, UniProt P10275+P40337, T878A)	DC50	51 to 500 nM

Please turn your attention to the following entry.
QUERY: Consider the molecule Cc1ncsc1-c1ccc(CNC(=O)[C@@H]2C[C@@H](O)CN2C(=O)[C@@H](NC(=O)CCNC(=O)CCCc2ccc(N3C(=S)N(c4ccc(C#N)c(C(F)(F)F)c4)C(=O)C3(C)C)cc2)C(C)(C)C)cc1 and give its measured DC50.
RESULT: > 501 nM
